Reported melting point values for a set of molecules

# Molecule, Endpoint value
data = [
    ("Nc1cccc(C(=O)O)c1S(=O)(=O)CCO", "75 to 77 °C"),
]

Lab book: melting point of CC(=O)Nc1ccccc1NS(=O)(=O)c1cc(C(=O)O)cc([N+](=O)[O-])c1Cl noted as 225 to 227 °C

Lab book: melting point of CCCCCCCCc1cc2c(cc1/C(C)=C/c1ccc(C(=O)OC)cc1)C(C)(C)CCCS2(=O)=O noted as 85 to 86 °C

Lab book: melting point of CC(CCc1ccccc1)NC1CCC(c2ccc(O)cc2)CC1 (racemic) noted as 44 to 49 °C

Lab book: melting point of c1ccc(CN2CCC(n3nnc4ccccc43)CC2)cc1 noted as 110 to 111 °C

Lab book: melting point of C[C@H](O)CNc1cc(OCc2ccccc2)ccc1C=O noted as 68 to 69 °C

Lab book: melting point of COc1c(C)c(NC(=O)CC(C)(C)C)c2c(c1C)C(c1ccc(C(C)C)cc1)C(C)(C)O2 (configuration not stated) noted as 140 to 141 °C

Lab book: melting point of CCCOc1ccc2c(c1)C(=O)C[C@H]2c1ccc2c(c1)OCO2 noted as 63 to 65 °C

Lab book: melting point of O=C1N=CC(OCC2CC2)(C(F)(F)F)c2cc(F)ccc2N1 (configuration not stated) noted as 198 to 199 °C

Lab book: melting point of Cc1c(C)c2c(c(C)c1OCc1ccccc1)CC(C)(CN1CCN(c3ccccc3)CC1)O2 (configuration not stated) noted as 120 to 121 °C

Lab book: melting point of COP(=O)(Cc1cc(Cl)c(O)c(C(C)(C)C)c1)OC noted as 107 °C

Lab book: melting point of CC/C=C\C#CCCCCCCCCCCO noted as 6 to 7 °C

###

Reported melting point values for a set of compounds

# Compound, melting point
data = [
    ("COc1cc(N)c(Cl)cc1C(=O)N[C@H]1CCN(CCNc2nccs2)C[C@H]1OC (relative stereo)", "141 °C"),
    ("O=C1CCCN(C(=O)c2ccc([N+](=O)[O-])cc2Cl)c2ncccc21", "162 to 164 °C"),
    ("CC1(C)CC(C)(C)CC2(CCCC(=O)N2)C1", "126 to 128 °C"),
    ("O=C(O)C1=CCCN1C(=O)CCS", "94 to 96 °C"),
]

API: the following record is the query input.
Lab book: melting point of CCn1cc(C(=O)O)c(=O)c2cc(F)c(N3CCN(C)C(COC)C3)cc21 (stereo not given) noted as 228 to 230 °C

###

Result type: melting point

Some compounds with recorded melting point:
# Compound, Endpoint value
rows = [
    ("Cc1cccc(C)c1CNc1cc(C(N)=O)cc2c1nc(C)n2C", "272 °C"),
    ("Oc1cc2[nH]c3cc(O)c(O)cc3c2cc1O", "> 300 °C"),
]

Lab book: melting point of COc1cc(NC(=O)c2ccc(Cl)cc2)c(C(N)=O)cc1OC noted as 120 to 122 °C

Lab book: melting point of CC(C)CCS(=O)(=O)NC(=O)/C=C/c1cc(OCC2CC2)nn1Cc1ccc(C(F)(F)F)cc1Cl noted as 156 to 158 °C

###

Result type: melting point

Some molecules with recorded melting point:
# Molecule, melting point
data = [
    ("COC(=O)c1csc(Cl)c1NC(C)=O", "119 to 121 °C"),
    ("Nc1ccc2c(c1)CCN(C(=O)C(F)(F)F)CC2", "160 to 162 °C"),
    ("c1ccc2c(c1)OP(N(C1CCCCC1)C1CCCCC1)c1ccccc1-2 (stereo unspecified)", "162 °C"),
    ("CC(C)Cn1c(=O)n(C)c(=O)c2c(SC(C)C)c(C(=O)c3nc4ccccc4n3C)sc21", "166 to 169 °C"),
]

Lab book: melting point of CC(=O)N1CCN=C1COc1cccc(C)c1C noted as 127 to 130 °C

Lab book: melting point of CCCCC1(CCCC)Cc2c(O)cccc2C1=O noted as 114 to 115 °C

Lab book: melting point of CC(C)(O)c1ccc(CNC(=O)c2cccnc2Oc2ccc(F)cc2)cc1 noted as 106 to 108 °C

Lab book: melting point of COC(=O)c1c(O)c(-c2cccc(C(F)(F)F)c2)nn1C noted as 101 to 103 °C

Lab book: melting point of BrCC(Br)c1ccc(-c2ccccc2)cc1 (stereo unspecified) noted as 79 to 81 °C

Lab book: melting point of NS(=O)(=O)c1cc2ccc(OCC3CO3)cc2s1 (stereo unspecified) noted as 148 to 149 °C

Lab book: melting point of O=c1cc(-c2ccc3nccnc3c2)oc2ncccc12 noted as 272 to 275 °C

###

Reported melting point values for a set of compounds

Some compounds with recorded melting point:
# Compound, melting point
measured = [
    ("CCCCc1nc2c(N)nc3cc(/C=C/C(=O)OC)ccc3c2n1CC(C)C", "193 to 194 °C"),
    ("COC(=O)Cc1cccc(NC(=O)NCC(=O)N2[C@@H](C(=O)N3CCCC3)C[C@H](S(=O)(=O)c3ccccc3)[C@H]2c2ccccc2F)c1 (racemic)", "156 °C"),
    ("CCCCn1c(=O)c2c(cnn2S(=O)(=O)CCC)n(CCCC)c1=O", "44 to 48 °C"),
]

Lab book: melting point of CC1=Nc2ccccc2N(Cc2ccccc2)C(=O)C1 noted as 111 to 113 °C

Lab book: melting point of CCOC(=O)C1=C(C)NC(C(OCC)OCC)=C(C(=O)OCC)C1c1ccco1 (stereo not given) noted as 59 to 60 °C

###

Reported melting point values for a set of compounds

Some compounds with recorded melting point:
# Compound, Result type, Endpoint value
data = [
    ("CC12CC(CCCCCO)C3c4ccc(O)cc4CCC3C1CCC2O (configuration not stated)", "melting point", "152 °C"),
    ("Nc1nc(O)ncc1-c1cccc(Cl)c1Cl", "melting point", "330 to 334 °C"),
    ("O=C(O)CCC(O)c1ccc(-c2ccc(Br)cc2)cc1 (configuration not stated)", "melting point", "127 °C"),
    ("O=C(NNc1ccc(C(F)(F)F)cc1)c1ccccc1F", "melting point", "163 to 165 °C"),
    ("COc1cc2cc(CO)c(CO)c(-c3ccnc(C4C(=O)CCCC4=O)c3)c2cc1OC", "melting point", "> 220 °C"),
]

Lab book: melting point of CCS(=O)(=O)CCc1ccc2[nH]cc(CC3CCCN3C)c2c1 (configuration not stated) noted as 59 to 62 °C

###

Reported melting point values for a set of compounds

Some compounds with recorded melting point:
# Compound, Endpoint value
rows = [
    ("Oc1ccc(OCCN2CCCCC2)cc1", "148 to 150 °C"),
    ("COc1ccnc(N2CCN(C(=O)c3ccco3)CC2)n1", "85 to 86 °C"),
    ("CCOC(CBr)(OCC)c1csc(NC(=N)N)n1", "157 to 158 °C"),
    ("CCC1CC(=O)N(Cc2ccc(NC(C)=O)cc2)N=C1c1ccc(OC)c(OC2CCCC2)c1 (stereo not given)", "162 °C"),
    ("CC(=NC(=Nc1ccccc1)N1CCOCC1)NC(C)C", "142 to 145 °C"),
]

Lab book: melting point of Cn1c(CO)ccc1S(=O)(=O)N1CCC(CCO)(Sc2cc(C(C)(C)C)c(O)c(C(C)(C)C)c2)CC1 noted as 126 to 127 °C

Lab book: melting point of O=C1C2=C(CCCC2)C(=O)N1c1cccc(O)c1 noted as 196 to 198 °C

Lab book: melting point of Cc1ccc2cccc(OCc3c(Cl)ccc(N(C)C(=O)CNC(=O)/C=C/c4ccc(NC(=O)c5cnccn5)nc4)c3Cl)c2n1 noted as 220 to 231 °C

Lab book: melting point of Cc1cccc(CN2NCC(=O)NC2=O)c1 noted as 158 °C

Lab book: melting point of CON=C(C1=NCCO1)c1ccccc1OCc1ccc(Cl)cc1 noted as 97 to 100 °C

###

Result type: melting point

# Molecule, Result type, Endpoint value
data = [
    ("Cc1cc2ccc(=O)oc2cc1O", "melting point", "253 to 254 °C"),
    ("NC(=O)c1ccc2c(c1)C(=O)N1CCC[C@H]1CO2", "melting point", "287 to 290 °C"),
    ("COc1ccc(Cn2c(O)nc3c(-c4ccco4)ncnc32)cc1", "melting point", "143 to 144 °C"),
    ("CNC(=O)ON(Cc1ccc(OCc2ccccc2)cc1)C(C)=O", "melting point", "101 to 102 °C"),
    ("CC(C)OC(=O)Nc1ccc2nc(-c3ccccc3)oc2n1", "melting point", "210 to 211 °C"),
    ("COC(=O)C1=C(C)NC(C)=C(C(=O)OC(C)C)C1c1ccccc1[N+](=O)[O-] (stereo not given)", "melting point", "174 °C"),
    ("N#Cc1ncc(NCCO)nc1Br", "melting point", "158 to 160 °C"),
    ("O=C(OCCOCc1ccccc1)c1cc(Oc2ccc(C(F)(F)F)cc2Cl)ccc1[N+](=O)[O-]", "melting point", "85 °C"),
    ("CC(C)c1ccc(C2COc3ccc(Br)cc32)cc1 (stereo not given)", "melting point", "90 to 91 °C"),
]

API: the following record is the query input.
Lab book: melting point of Cc1ccc(S(=O)(=O)OC(C)COc2c([N+](=O)[O-])ccc(F)c2F)cc1 (stereo not given) noted as 67 to 69 °C
